Reference for the values: the supplement of paper PMC10065799

# study.system: c-Src SH2;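 further: peptide library displayed on the E. coli surface as eCPX fusions, selected cells deep-sequenced, score is each peptide's frequency after selection divided by its frequency in the input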
# method.summary: SH2 binding enrichment of the phosphorylated peptide, bacterial display (enrichment ratio); higher = better substrate or ligand; peptides without Tyr show the background
Use 0.5 as the dividing line for SH2 binding enrichment, with the line itself on the MET side and lower values as NOT MET.

# biosequence, study.system, assigned.category
records = [
    ("TEDELYQLSLQ [RASGRP2_Y378]", "c-Src SH2", "NOT MET"),
    ("QMVGMYASFFM [AVPR2_Y124_S127F_YF]", "c-Src SH2", "MET"),
    ("GHEFIYVDRMQ [PDGFRB_Y581_P584R_YF]", "c-Src SH2", "NOT MET"),
    ("PLYSKYWPNHI [GREB1L_Y1560_R1558S]", "c-Src SH2", "MET"),
    ("GKSFIYAAFHA [KCNT1_Y563_T562I]", "c-Src SH2", "MET"),
    ("QKNVSYVSTVS [TASOR_Y1043]", "c-Src SH2", "NOT MET"),
    ("MDYRSYPREYG [RBM10_Y44]", "c-Src SH2", "NOT MET"),
    ("QQLQGYVPSNF [FRK_Y99_I100V_YF]", "c-Src SH2", "MET"),
    ("NHFKRYNLCAE [PTEN_Y68_I67R_YF]", "c-Src SH2", "MET"),
    ("LFSLGYHQSLW [GANAB_Y396_R400L]", "c-Src SH2", "MET"),
    ("QRALLYEDALY [UNC13D_Y56]", "c-Src SH2", "MET"),
    ("TIQIMYGCDVG [HLA-A_Y123]", "c-Src SH2", "MET"),
    ("SDVCMYRKNTY [SYNE2_Y570_I574T]", "c-Src SH2", "NOT MET"),
    ("LSCLAYSGKDA [FXN_Y205_S202C]", "c-Src SH2", "MET"),
    ("TKAEKYVNKAK [PLCG1_Y991]", "c-Src SH2", "MET"),
    ("SSPQPYLVPFL [TAF4_Y652]", "c-Src SH2", "MET"),
    ("GANSEYIIAEK [ECHS1_Y35_F33S]", "c-Src SH2", "NOT MET"),
    ("EHFSFYGMKAV [SLC15A2_Y61_R57H_YF]", "c-Src SH2", "NOT MET"),
    ("FLLRVYSIFSK [SGCE_Y38_T36R]", "c-Src SH2", "MET"),
    ("PELINYHQHFS [BTK_Y361_N365Y_YF]", "c-Src SH2", "MET"),
    ("YRASYYRRGDR [LTK_Y677]", "c-Src SH2", "NOT MET"),
    ("GRQVIYTENER [GPR143_Y231_G229V]", "c-Src SH2", "MET"),
    ("TDHLQYFDSNK [ARAP1_Y359_R358Q]", "c-Src SH2", "MET"),
    ("EKMWTYMPSAE [GRIA4_Y695_R697P]", "c-Src SH2", "MET"),
    ("RHPYFYAPELL [ALB_Y174]", "c-Src SH2", "MET"),
    ("SKNYTYIWWLN [PSG4_Y271]", "c-Src SH2", "NOT MET"),
    ("SSSAIYDNPDL [DCP1B_Y191_N195D]", "c-Src SH2", "MET"),
    ("VIKDKYPKAHF [APTX_Y209_R213H_YF]", "c-Src SH2", "MET"),
]
